Consider the following compounds and their measured pIC50 readings.
# EXPERIMENTAL SYSTEM: Human PD-L1/PD-1 (Homo sapiens, UniProt Q9NZQ7)
# Construct: TVMV protease cleavage site (C); made in house; host or cells: HEK293T cells
# Sequence (Q9NZQ7 with tags, fused parts or gaps): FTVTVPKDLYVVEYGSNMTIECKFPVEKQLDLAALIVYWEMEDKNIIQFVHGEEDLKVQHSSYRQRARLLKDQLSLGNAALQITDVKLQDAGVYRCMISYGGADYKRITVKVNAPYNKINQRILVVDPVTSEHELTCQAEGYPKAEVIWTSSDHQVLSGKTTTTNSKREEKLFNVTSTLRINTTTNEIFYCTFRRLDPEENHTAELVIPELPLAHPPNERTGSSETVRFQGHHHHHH
# ASSAY DETAILS: HTRF Human PD-L1/PD-1 binding assay (PD-1-Ig/PD-L1-His)
# CONDITION NOTES: PD-L1-His 10 nM, PD-1-Ig 20 nM; class symbol; read-out: HTRF Human PD-L1/PD-1 Binding Assay IC50 Range
# Description: Methods for Testing the Ability of Macrocyclic Peptides to Compete for the Binding of PD-1 to PD-L1 Using Homogenous Time-Resolved Fluorescence (HTRF) Binding Assays The ability of the macrocyclic peptides of the present disclosure to bind to PD-L1 was investigated using a PD-1/PD-L1 Homogenous Time-Resolved Fluorescence (HTRF) binding assay. Homogenous Time-Resolved Fluorescence (HTRF) Assays of Binding of Soluble PD-1 to Soluble PD-L1. […]
pIC50: −log10 of the molar value. Where a SMILES comes first, the peptide text is derived from it. Bridges are numbered along the chain shown (N, C = ends). [ ]: non-standard residue; d: D form. ξ: configuration not given here. NMeF = CN[C@@H](Cc1ccccc1)C(=O)O; 4Pal = N[C@@H](Cc1ccncc1)C(=O)O; NMeNle = CCCC[C@H](NC)C(=O)O; dPip = O=C(O)[C@H]1CCCCN1; NMeA = CN[C@@H](C)C(=O)O; ξC = NC(CS)C(=O)O; Sar = CNCC(=O)O

Known results for compounds:
COMPOUND	RECORDED METRIC	OBS VALUE
CCCC[C@H]1C(=O)N(C)[C@@H](CCCC)C(=O)N[C@@H](CCC(=O)O)C(=O)NC(C(=O)NCC(N)=O)CSCC(=O)N[C@@H](Cc2ccc(O)cc2)C(=O)N(C)[C@@H](C)C(=O)N[C@@H](CC(N)=O)C(=O)N2CCC[C@H]2C(=O)N[C@@H](Cc2c[nH]cn2)C(=O)N[C@@H](CC(N)=O)C(=O)N2CCC[C@H]2C(=O)N[C@@H](Cc2c[nH]c3ccccc23)C(=O)N[C@@H](CO)C(=O)N[C@@H](Cc2c[nH]c3ccccc23)C(=O)N1C (stereo partly shown) [Example 9170] ({CH2CO}-Y[NMeA]NPHNPWSW[NMeNle][NMeNle]E[ξC]G-NH2; thioether N-14)	pIC50	7.00 to 8.00
CCCC[C@H]1C(=O)N(C)CC(=O)N[C@@H](CC(=O)O)C(=O)N[C@@H](C(C)C)C(=O)N(C)[C@@H](Cc2ccccc2)C(=O)N[C@@H](Cc2ccc(O)cc2)C(=O)N(C)CC(=O)N[C@@H](Cc2c[nH]c3ccccc23)C(=O)N[C@@H](Cc2ccc(O)cc2)C(=O)N[C@@H](CC(C)C)C(=O)N[C@H](C(=O)NCC(N)=O)CSCC(=O)N[C@@H](Cc2ccncc2)C(=O)N(C)[C@@H](Cc2ccccc2)C(=O)N1C [Example 3242] ({CH2CO}-[4Pal][NMeF][NMeNle][Sar]DV[NMeF]Y[Sar]WYLCG-NH2; thioether N-13)	pIC50	6.00 to 7.00
CCCC[C@H]1C(=O)N2CCC[C@@H]2C(=O)N[C@@H](CO)C(=O)N[C@@H](C(C)C)C(=O)N(C)[C@@H](Cc2ccccc2)C(=O)N[C@@H](Cc2ccc(O)cc2)C(=O)N2CCCC[C@@H]2C(=O)N[C@@H](Cc2c[nH]c3ccccc23)C(=O)N[C@@H](Cc2ccc(O)cc2)C(=O)N[C@@H](CC(C)C)C(=O)N[C@H](C(=O)NCC(N)=O)CSCC(=O)N[C@@H](Cc2ccccc2)C(=O)N(C)[C@@H](Cc2ccccc2)C(=O)N1C [Example 10064] ({CH2CO}-F[NMeF][NMeNle][dP]SV[NMeF]Y[dPip]WYLCG-NH2; thioether N-13)	pIC50	7.00 to 8.00

The record that follows has no pIC50 shown yet.
Q: Report pIC50 for CCCC[C@H]1C(=O)N(C)[C@@H](CCCC)C(=O)N[C@@H](CN)C(=O)N[C@H](C(=O)NCC(N)=O)CSCC(=O)N[C@@H](Cc2ccc(O)cc2)C(=O)N(C)[C@@H](C)C(=O)N[C@@H](CC(=O)O)C(=O)N2CCC[C@H]2C(=O)N[C@@H](Cc2c[nH]cn2)C(=O)N[C@@H](CCC(=O)O)C(=O)N2C[C@H](O)C[C@H]2C(=O)N[C@@H](Cc2c[nH]c3ccccc23)C(=O)N[C@@H](CCN)C(=O)N[C@@H](Cc2cn(CC(=O)O)c3ccccc23)C(=O)N1C [Example 5220]
Ans: 6.00 to 7.00
